# Target system: UniProt P36888
# Sequence (P36888 27-993): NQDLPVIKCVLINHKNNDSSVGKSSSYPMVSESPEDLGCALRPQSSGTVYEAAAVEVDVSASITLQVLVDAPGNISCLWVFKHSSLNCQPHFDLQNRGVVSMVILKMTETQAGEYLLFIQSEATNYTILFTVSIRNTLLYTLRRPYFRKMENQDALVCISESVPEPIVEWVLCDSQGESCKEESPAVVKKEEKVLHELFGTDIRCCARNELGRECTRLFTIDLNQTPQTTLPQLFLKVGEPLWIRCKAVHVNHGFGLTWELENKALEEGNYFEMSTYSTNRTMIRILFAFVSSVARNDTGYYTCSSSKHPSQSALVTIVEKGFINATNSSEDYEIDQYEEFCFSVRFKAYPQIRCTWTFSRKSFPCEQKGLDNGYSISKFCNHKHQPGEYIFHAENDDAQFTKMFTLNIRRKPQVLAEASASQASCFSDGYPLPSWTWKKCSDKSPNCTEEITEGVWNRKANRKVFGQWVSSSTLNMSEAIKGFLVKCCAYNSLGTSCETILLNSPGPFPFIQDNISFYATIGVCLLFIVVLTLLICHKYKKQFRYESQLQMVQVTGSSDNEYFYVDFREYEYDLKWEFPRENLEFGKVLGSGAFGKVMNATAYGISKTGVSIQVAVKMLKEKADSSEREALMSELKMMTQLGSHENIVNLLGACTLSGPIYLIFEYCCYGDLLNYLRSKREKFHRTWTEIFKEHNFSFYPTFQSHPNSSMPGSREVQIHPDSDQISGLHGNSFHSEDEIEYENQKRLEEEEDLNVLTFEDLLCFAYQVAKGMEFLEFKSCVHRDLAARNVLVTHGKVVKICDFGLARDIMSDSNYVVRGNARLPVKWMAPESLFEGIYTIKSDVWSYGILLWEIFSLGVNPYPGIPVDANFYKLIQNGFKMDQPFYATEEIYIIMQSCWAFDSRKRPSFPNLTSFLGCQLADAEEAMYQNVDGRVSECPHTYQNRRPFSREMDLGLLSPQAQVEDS
# Measurement description: Cell-based tyrosine kinase inhibition assay
# Experimental setup: recombinant kinase expressing Ba/F3 cells, 48 hr
Measurement label: pIC50
# pIC50: negative log10 of molar concentration; output just the value

The value of pIC50 measured for the molecule `COc1cc2nccc(Oc3ccc(NC(=O)c4cc5c(n(-c6ccccc6)c4=O)CCCC5=O)nc3)c2cc1OC` turned out to be 6.83

Taken from paper PMC5709104.
